# Tested on: LN229 cells
# ASSAY METHOD TEXT: High-throughput screening: cell viability (resazurin), compounds with DMSO or Gamitrinib
# Type: cell-based, Human
# EXPERIMENTAL SETUP: Homo sapiens, LN-229; compound 0.000128 uM + DMSO (control); read-out: Percent inhibition
MEASURED METRIC: inhibition at 0.000128 µM (%)
// note: answer is a bare numeric in %

{"MOLECULAR STRING": "Cc1cc([C@@H](C)Nc2ccccc2C(=O)O)c2nc(N3CCOCC3)cc(=O)n2c1", "ASSAY TARGET": "LN229 cells", "ENDPOINT RESULT": 11.8}
{"MOLECULAR STRING": "COc1ncc(-c2ccc3nccc(-c4ccnnc4)c3c2)cc1NS(=O)(=O)c1ccc(F)cc1F", "ASSAY TARGET": "LN229 cells", "ENDPOINT RESULT": 8.89}
{"MOLECULAR STRING": "Nc1cc(C(F)(F)F)c(-c2cc(N3CCOCC3)nc(N3CCOCC3)n2)cn1", "ASSAY TARGET": "LN229 cells", "ENDPOINT RESULT": 4.38}
{"MOLECULAR STRING": "CS(=O)(=O)N1CCN(Cc2cc3nc(-c4cccc5[nH]ncc45)nc(N4CCOCC4)c3s2)CC1", "ASSAY TARGET": "LN229 cells", "ENDPOINT RESULT": -14.7}

Here is the next item to consider.
Requested read-out: inhibition at 0.000128 µM. Entry: `Cn1c(=O)n(-c2ccc(C(C)(C)C#N)cc2)c2c3cc(-c4cnc5ccccc5c4)ccc3ncc21`
-21.4

* * *

Listed next: entries and their corresponding Percent inhibition.
# Tested on: LN229 cells
# ASSAY METHOD TEXT: High-throughput screening: cell viability (resazurin), compounds with DMSO or Gamitrinib
# Type: cell-based, Human
# EXPERIMENTAL SETUP: compound […] + Gamitrinib (1 μM)
# Method: High-throughput screening and synergy experiments. Compounds for the molecular targeted cancer therapeutics were either purchased from SelleckChem or acquired under Material Transfer Agreement (MTA) with the Wistar Institute MTA. Compounds were suspended in DMSO. The purity and identity of the compounds was confirmed by LC/MS for a fraction of the compounds. […] Cell viability was determined by the addition of resazurin to a final concentration of 50 μM and incubation for 8 h. […]
Dear colleague, please send the value followed by its unit.

Some entries whose results are on file:
{"COMPOUND": "Cn1c(=O)n(-c2ccc(C(C)(C)C#N)cc2)c2c3cc(-c4cnc5ccccc5c4)ccc3ncc21 [BEZ235]", "Percent inhibition": "145.76%"}
{"COMPOUND": "COc1ncc(-c2ccc3nccc(-c4ccnnc4)c3c2)cc1NS(=O)(=O)c1ccc(F)cc1F [GSK458]", "Percent inhibition": "136.49%"}
{"COMPOUND": "Cc1cc([C@@H](C)Nc2ccccc2C(=O)O)c2nc(N3CCOCC3)cc(=O)n2c1 [AZD6482]", "Percent inhibition": "118.13%"}
{"COMPOUND": "Nc1cc(C(F)(F)F)c(-c2cc(N3CCOCC3)nc(N3CCOCC3)n2)cn1 [BKM120]", "Percent inhibition": "138.62%"}

Can you look up the measured Percent inhibition of CS(=O)(=O)N1CCN(Cc2cc3nc(-c4cccc5[nH]ncc45)nc(N4CCOCC4)c3s2)CC1 [GDC0941] for me?
126.85%

Value source: patent US20240342199A1
